study system: T1, human insulin-like growth factor binding protein 4 (IBP4) (human, UniProt P22692 22-258)
T1 construct: also called IBP4 protein; IGFBP4
T1 sequence: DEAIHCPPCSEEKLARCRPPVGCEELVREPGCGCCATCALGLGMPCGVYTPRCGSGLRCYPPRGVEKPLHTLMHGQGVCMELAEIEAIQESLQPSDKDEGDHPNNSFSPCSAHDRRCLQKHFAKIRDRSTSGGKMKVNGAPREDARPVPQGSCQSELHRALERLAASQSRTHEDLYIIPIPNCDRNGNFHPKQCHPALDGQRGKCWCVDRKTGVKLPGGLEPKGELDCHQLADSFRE
test protocol: SPR, format and IBP4 form not stated
experimental readout: kon (M⁻¹ s⁻¹)
# number only, unit M⁻¹ s⁻¹ dropped from output

Q: Need kon, item anti-IBP4 antibody 5C11.A7 (antibody, mouse IgG1, kappa, V domains shown, Mouse hybridoma mAb raised against FL IBP4; also called IBP4-5C11.A7) VH: QVQLQQSGAELVRPGASVTLSCKASGYTFTDYEMHWVRQTPVHGLEWIGAIDTETGGPAYNQKFKGKAILTADKSSSTAYMELRSLTSEDSAVYFCTRARGSRSVYYFDNWGQGTTLTVSS VL: DIVMTQSQKFMSTSVGDRVSVTCKASQNVGTNVAWYQQKPGHSPKVLIYSASYRHSGVPDRFTGSGSGTDFTLTIGNVQSEDLADYFCQQYDTYPLTFGSGTKLEIKR
A: 450000

Q: Need kon, item anti-IBP4 antibody 1H9.B6 (antibody, mouse IgG1, kappa, V domains shown, Mouse hybridoma mAb raised against FL IBP4; also called IBP4-1H9.B6) VH: EVQLQQSGPELVKPGASVKISCKTSGYTFTDYYMNWVKQSHGKSLEWIGDINPNNGGAGYNQKFKGKATLTVDKSSSTAYMELRSLTSEDSAVYYCARWGWDRYFDYWGQGTTLTVSS VL: DIVMTQSQKFMSTSVGDRVSVTCKASQNVGIDVAWYQQKPGQSPKALIYSASYRSSGVPDRFTGSGSGTDFTLTINNVQSEDLAEYFCQQYNSYPLAFGSGTKLEIKR
A: 600000

Q: Need kon, item anti-IBP4 antibody 3D4.E9 (antibody, mouse IgG2b, kappa, V domains shown, Mouse hybridoma mAb raised against FL IBP4; also called IBP4-3D4.E9) VH: QVQLQQSGAELVRPGASVTLSCKASGYTFTDYEMHWVKQTPVHGLEWIGAIDPETGGAAYNQKFKGKAILTADKSSSTAYMELRSLTSEDSAVYYCTRARGSSSVYYFDYWGQGTTLTVSS VL: DIVMTQSQKFMSTSVGDRVSVTCKASQNVGTNVAWYQQKPGQSPKALIYSTSYRYSGVPDRFTGSRSGTDFILTISNVQSEDLAEYFCQQYDSYPLTFGSGTKLEIKR
A: 270000

Q: Need kon, item anti-IBP4 antibody 7G11.H4 (antibody, mouse IgG1, kappa, V domains shown, Mouse hybridoma mAb raised against FL IBP4; also called IBP4-7G11.H4) VH: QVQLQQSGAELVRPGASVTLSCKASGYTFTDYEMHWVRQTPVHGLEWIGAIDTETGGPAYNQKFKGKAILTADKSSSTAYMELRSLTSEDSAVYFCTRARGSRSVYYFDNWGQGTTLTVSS VL: DIVMTQSQKFMSTSVGDRVSVTCKASQNVDTNIAWYQQKPGHSPKALIYSASYRYSGVPDRFTGSGSGTDFTLTIGNVQSEDLADYFCQQYDTYPLTFGSGTKLEIKR
A: 370000
